- Test system: MYB
- assay.remarks: HiBiT protein abundance assay, MYB HiBiT K562 cell line
- Assay type: cell-based, human
- assay.setup: HiBiT K562 cell line, 24 hours, top dose 10 μM; read-out: Effect on protein abundance, MYB (IC50 category)
metric.name: IC50

{"molecule": "Cc1cn2cc(-c3ccc4c(=O)n(C5CCNC(C)(C)C5)cnc4c3)cc(F)c2n1 (stereo not shown) [Compound 237]", "IC50": "100 to 1000 nM"}
{"molecule": "Cc1cn2nc(-c3ccc4c(=O)n(C5CCNCC5)ccc4c3)cc(CC#N)c2n1 [Compound 520]", "IC50": "100 to 1000 nM"}

Proceed to the following item.
Value of IC50 reported for the molecule Cc1nc2c(C)cc(-c3cc(F)c4c(=O)n(C5CCNC6(CC6)C5)ccc4c3)cc2o1 (stereo not shown) [Compound 418] is < 100 nM
